system: RARg homodimer (NR concentration 270 nM); test: PBM binding z-score (relative to random genomic background probes); higher = stronger binding; sequences stand for … in GC…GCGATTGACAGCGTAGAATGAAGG
Threshold rule: PBM binding z-score greater than or equal to 0.7 is Yes; below that, No.

Polymer sequence	Classification
GCGACTGGGGCAACAGCAGGTTACCATAACTTAA	Yes
TTACCAAGGTGAGCTCAGGTCGTTGATCCAACTC	No
CCAGACAGGTGAGAAGGTAACTCACCCTCGATTA	No
TCTGCTAGGTCAGTTGATCAGCTAACGAGCTGCC	Yes
CCGACTGGGGCAGAAAGGATACCATACCATCCGG	No
TAGCCTAGGTCATTGGGCCATTATAGTACGCATC	Yes

Origin of the recorded values: the supplement of paper PMC6555819
